# TEST_TARGET: Chymotrypsin (Bos taurus, UniProt P00766)
VALUE_KIND: log10 IC50 (log10 of the value in µM)
Answers are given as log10 of IC50 in µM.

QUERY: Look up and report measured log10 IC50 for this entry: Cc1ccc(S(=O)(=O)N[C@@H](Cc2ccccc2)C(=O)CCl)cc1 [TPCK, Tosylphenylalanine chloromethyl ketone, reference compound]
RESULT: 2.70

QUERY: Look up and report measured log10 IC50 for this entry: `COc1ccc2[nH]c(C)c(CC(=O)Oc3ccc(C(=O)OCCN4CCN(C)CC4)cc3)c2c1`
RESULT: -1.22

QUERY: Look up and report measured log10 IC50 for this entry: `COc1ccc2c(c1)c(CC(=O)Oc1ccc(C(=O)OCCN3CCN(CC(=O)N4CCCC4)CC3)cc1)c(C)n2C`
RESULT: -1.15

QUERY: Look up and report measured log10 IC50 for this entry: `CN(C)C(=O)CN1CCN(CCOC(=O)c2ccc(OC(=O)Cc3cccc4ccccc34)cc2)CC1`
RESULT: -0.52

QUERY: Look up and report measured log10 IC50 for this entry: O=C(OCCN1CCN(CC(=O)N2CCOCC2)CC1)c1ccc(OC(=O)C2CCCc3ccccc32)cc1 (stereo not drawn)
RESULT: -0.22

QUERY: Look up and report measured log10 IC50 for this entry: `COc1ccc2[nH]cc(CC(=O)Oc3ccc(C(=O)OCCN4CCN(CC(=O)N5CCCC5)CC4)cc3)c2c1`
RESULT: -1.30

Origin of the recorded values: patent US4443603A
